Cited source: paper PMC11070930

biological target: PARP1 WT (UniProt P09874 1-1014); test: fluorescence polarization
Sequence (P09874 whole entry): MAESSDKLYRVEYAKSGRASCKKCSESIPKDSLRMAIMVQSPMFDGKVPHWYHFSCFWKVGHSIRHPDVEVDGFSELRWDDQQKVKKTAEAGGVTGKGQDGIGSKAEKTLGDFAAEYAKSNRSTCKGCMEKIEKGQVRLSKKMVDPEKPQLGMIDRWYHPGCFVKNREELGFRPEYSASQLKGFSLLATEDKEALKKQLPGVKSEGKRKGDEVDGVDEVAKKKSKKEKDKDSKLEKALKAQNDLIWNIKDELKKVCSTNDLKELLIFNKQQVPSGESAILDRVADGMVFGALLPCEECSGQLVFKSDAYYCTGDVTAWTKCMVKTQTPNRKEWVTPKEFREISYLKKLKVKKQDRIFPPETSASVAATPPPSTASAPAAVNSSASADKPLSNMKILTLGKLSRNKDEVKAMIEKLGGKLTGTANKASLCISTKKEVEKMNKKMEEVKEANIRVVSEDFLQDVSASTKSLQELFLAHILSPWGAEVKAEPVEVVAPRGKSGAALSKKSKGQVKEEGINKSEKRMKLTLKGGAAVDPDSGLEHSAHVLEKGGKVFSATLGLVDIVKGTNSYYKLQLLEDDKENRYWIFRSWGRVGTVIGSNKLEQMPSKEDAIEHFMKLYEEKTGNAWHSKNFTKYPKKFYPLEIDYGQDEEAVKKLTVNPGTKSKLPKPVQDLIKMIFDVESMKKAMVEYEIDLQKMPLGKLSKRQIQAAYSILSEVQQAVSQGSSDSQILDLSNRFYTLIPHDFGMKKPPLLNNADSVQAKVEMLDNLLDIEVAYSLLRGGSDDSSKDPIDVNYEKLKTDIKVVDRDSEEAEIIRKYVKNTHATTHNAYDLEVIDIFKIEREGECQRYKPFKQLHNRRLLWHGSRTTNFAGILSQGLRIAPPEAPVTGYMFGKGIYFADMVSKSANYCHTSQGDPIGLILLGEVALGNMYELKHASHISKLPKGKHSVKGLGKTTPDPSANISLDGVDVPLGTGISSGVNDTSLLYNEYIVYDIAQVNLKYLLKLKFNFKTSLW
readout label: Kd (nM)
Numbers only, in nM.

Item 18-bp DNA duplex (dsDNA) DNA 1: GGGTTGCGGCCGCTTGGG DNA 2: CCCAAGCGGCCGCAACCC : provide Kd
4.5
